Assay: chemical genetic growth profiling, strain panel (AID 1159580);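 note: tested at 20 µM; growth read once vehicle control cultures reached saturation at 30 °C; lower values mean less growth of the strain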
Conditions: S. cerevisiae deletion strains, growth OD, locus YIR030C, strain dcg1
The campaign covered roughly 5,500 compounds. About 2,000 (36%) were called active. Not shown: some 18% with an inconclusive outcome. Cut-off read from the data, not from the text of the source: active = normalized growth mostly below about 0.91 (no sharp cut-off); inconclusive = no clear call, values can overlap the other calls; inactive = mostly above about 0.92. The list shows a part of the results.
Please reply with one of these outcomes: True (active), False (inactive)

Please review the entries below; each comes with its answer.
compound="CC(=O)O[C@H]1CC[C@@]2(C)C(CC[C@]3(C)C2CC=C2C4CC(C)(C)CC[C@]4(C)CC[C@]23C)C1(C)C (stereo partly drawn)" qualitative_label=False
compound=C/C=C(/C)C(=O)O[C@H]1CC[C@@]2(C)[C@@H]3CC[C@H]4[C@]5(O)C[C@H](O)[C@@]6(O)[C@@H](CN7C[C@@H](C)CC[C@H]7[C@@]6(C)O)[C@]5(O)C[C@@]42O[C@]13O qualitative_label=False
compound="CCC(C)C(=O)O[C@H]1[C@H](O)C2C(CN3CC(C)CCC3[C@@]2(C)O)C2C[C@]34O[C@]5(O)C(OC(=O)C(C)(O)CC)CC[C@@]3(C)C5C(OC(C)=O)[C@@H](OC(C)=O)C4[C@@]21O (stereo partly drawn)" qualitative_label=False
compound=Clc1ccccc1C(c1ccccc1)(c1ccccc1)n1ccnc1 qualitative_label=True
compound="CC1C(=O)OC2C1CCC1(C)C=CC(=O)C3(C)OC213 (stereo not drawn)" qualitative_label=False

With those in mind, consider the next compound.
Status in this test for COc1ccc2c(c1)c(CC(=O)O)c(C)n2C(=O)c1ccc(Cl)cc1 ? False
